All values here come from patent US20180371091A1.

Target: T1, human ICOS-hFc (homodimeric, bivalent) (human, UniProt Q9Y6W8 21-141)
T1 construct: also called hICOS-Fc; hICOS-hFc; not shown: human IgG1 Fc (IgG1 backbone)
T1 sequence: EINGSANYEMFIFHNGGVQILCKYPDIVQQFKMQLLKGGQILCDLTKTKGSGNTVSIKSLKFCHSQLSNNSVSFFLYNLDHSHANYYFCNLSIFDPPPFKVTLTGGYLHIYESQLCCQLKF
Test: BLI, bivalent binding to homodimeric ICOS-Fc
Overview of recorded kon for various binders
// units = M⁻¹ s⁻¹; emit number, no label

Worked cases, answers included:
Request: Supply kon value. Item: 36E10 (antibody, V domains shown, Armenian hamster monoclonal tested as IgG; also called hamster anti-ICOS 36E10) VH: EVQLVESGGGLVKPGGSLKLSCAASGFTFSDYWMDWVRQAPGKGLEWVGNIDEDGSITEYSPFVKGRFTISRDNVKNILYLQMNSVKSEDTATYYCTRWGRFAFDSWGQGTLVTVSS VL: DIVMTQSPSSLAVSPGDRVTINCKSSQSLLSGSFHYLTWYQQKTGQAPKLLIFYASTRHTGVPDRFMGSGSGTDFTLTINSFQTEDLGDYYCHHHYNAPPTFGPGTKLELR
Response: 617000

Request: Please report kon for the following binder: 37A10 (antibody, V domains shown, Armenian hamster monoclonal tested as IgG; also called hamster anti-ICOS 37A10) VH: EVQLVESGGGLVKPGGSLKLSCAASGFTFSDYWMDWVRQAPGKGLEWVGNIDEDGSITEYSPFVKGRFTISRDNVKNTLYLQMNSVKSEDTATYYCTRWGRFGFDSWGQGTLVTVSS VL: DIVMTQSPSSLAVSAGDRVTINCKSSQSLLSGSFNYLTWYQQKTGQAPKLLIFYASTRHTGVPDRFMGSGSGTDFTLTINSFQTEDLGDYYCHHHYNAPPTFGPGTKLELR
Response: 625000

Request: State its kon for this binder: 7F12 (antibody, V domains shown, Armenian hamster monoclonal tested as IgG; also called hamster anti-ICOS 7F12) VH: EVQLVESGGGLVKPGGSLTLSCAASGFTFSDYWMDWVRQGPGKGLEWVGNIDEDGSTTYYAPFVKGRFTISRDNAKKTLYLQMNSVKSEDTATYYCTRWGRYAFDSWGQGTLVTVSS VL: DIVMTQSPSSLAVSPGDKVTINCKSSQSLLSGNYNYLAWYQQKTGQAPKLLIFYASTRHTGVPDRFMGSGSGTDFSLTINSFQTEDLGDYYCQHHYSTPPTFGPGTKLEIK
Response: 674000

Kindly review the next binder as well.
Request: Name the recorded kon of the binder listed here: 16G10 (antibody, V domains shown, Armenian hamster monoclonal tested as IgG; also called hamster anti-ICOS 16G10) VH: EVQLVESGGGLVKPGGSLKLSCAASGFTFSDYWMDWVRQAPGKGLEWVGNIDHDGNIINFAPSVKGRFTISRDNAKNTLYLQMNSVKSEDTATYYCARWGHYAFDSWGQGTLVTVSS VL: DIVMTQSPSSLAVSAGDKVTINCKSSQSLLSSGYNYLIWYQQKTGQAPKLLIFYASTRHTGVPDRFIGSGSGTDFTLTITSFQTEDLGDYYCQHHYSSPPTFGPGTKLEIK
Response: 626000
